- System: Mus musculus
- Procedure details: Acute toxicity in Mus musculus albino (mouse) assessed as alertness, touch response, and restlessness at 10 to 2000 mg/kg, po after 24 hr
- Format: organism-based
- Parameters: dose 10-2000 mg/kg, route oral
- Experimental context: in vivo
Recorded endpoint: Activity

See these solved cases before continuing.
{"Compound": "CC(C)Cc1ccc(C(C)c2nnc(SCC(=O)c3cc4ccccc4oc3=O)o2)cc1 (centres undefined)", "Activity": "Toxic"}
{"Compound": "COc1ccc2c(c1)c(Cc1nnc(SCC(=O)c3cc4ccccc4oc3=O)o1)c(C)n2C(=O)c1ccc(Cl)cc1", "Activity": "Toxic"}
{"Compound": "O=C(Cc1ccccc1Nc1c(Cl)cccc1Cl)OCc1nnc(SCC(=O)c2cc3ccccc3oc2=O)o1", "Activity": "Toxic"}
{"Compound": "CC(=O)Nc1ccc(OCc2nnc(SCC(=O)c3cc4ccccc4oc3=O)o2)cc1", "Activity": "Toxic"}
{"Compound": "O=C(CSc1nnc(C2CCn3c(C(=O)c4ccccc4)ccc32)o1)c1cc2ccccc2oc1=O (centres undefined)", "Activity": "Toxic"}
{"Compound": "O=C(CSc1nnc(-c2ccccc2O)o1)c1cc2ccccc2oc1=O", "Activity": "Toxic"}

Q: Field request: Activity | item: C[C@H](c1ccc(-c2ccccc2)c(F)c1)c1nnc(SCC(=O)c2cc3ccccc3oc2=O)o1
Result: Toxic

Q: Field request: Activity | item: O=C(CSc1nnc(Cc2ccccc2Nc2c(Cl)cccc2Cl)o1)c1cc2ccccc2oc1=O
Result: Toxic

Q: Field request: Activity | item: CC(c1cccc(C(=O)c2ccccc2)c1)c1nnc(SCC(=O)c2cc3ccccc3oc2=O)o1 (centres undefined)
Result: Toxic
